# Tested on: SUM149PT spheroids with HUVEC/MSC, viability
# assay.overview: Anticancer human tumor SUM149PT cell line growth inhibition [GQUAD];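 note: spheroids exposed to drugs for seven days before readout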
# conditions.used: curve of first compound; second compound 1 µM
pIC50: −log10 of the molar value.
Consider the following molecules; for each one, report its pIC50.

Study these solved cases before continuing.
>>> result("O=c1[nH]cc(F)c(=O)[nH]1 + Cc1[nH]c2ccc(F)cc2c1-c1nc2c3cccnc3c3ncccc3c2[nH]1")
5.12
>>> result("CCCS(=O)(=O)Nc1ccc(F)c(C(=O)c2c[nH]c3ncc(-c4ccc(Cl)cc4)cc23)c1F + Cc1cnc(CNC(=O)c2c(=O)c3ccc(N4CCCN(C)CC4)nc3n3c2sc2ccccc23)cn1")
"> 7.50"

We now examine a further molecule.
Recall and state the measured pIC50 for O=C(c1cc(Cc2n[nH]c(=O)c3ccccc23)ccc1F)N1CCN(C(=O)C2CC2)CC1 + Cc1[nH]c2ccc(F)cc2c1-c1nc2c3cccnc3c3ncccc3c2[nH]1 .
< 5.00

Where do these numbers come from? They come from PubChem BioAssay AID2060484.
